# test details: RP, Phenomenex Kinetex C18, 150 × 2.1 mm, 1.7 µm, 30 °C, 0.3 mL/min, estimated dead time 1.1 min; A: water + 0.1% formic acid, pH 3; B: acetonitrile + 0.1% formic acid, pH 3; gradient (min/%B) 0/2 14/100 17/100 17.1/2 25/2
# test conditions: stereoisomer not certain
Let's look at some compounds and their measured LC retention time.
Give just the number in min; leave the unit off.

Recorded results for 4 compounds are shown here.
- O=C([O-])CCc1ccccc1O [3-(2-HYDROXYPHENYL)PROPANOATE]: 6.02
- CCC(O)C(=O)[O-] (stereo not given) [2-HYDROXYBUTYRATE]: 2.37
- CC(CC(=O)O)CC(=O)O [METHYGLUTARATE]: 3.85
- Nc1ccccc1S(=O)(=O)O [ANILINE-2-SULFONATE]: 2.04

The compound Nc1ncnc2c1ncn2C1CC(O)C(CO)O1 (stereo not given) showed LC retention time equal to 2.54

So, CC12CCC(=O)C=C1CCC1C2CCC2(C)C1CCC2(O)C(=O)CO (stereo not given) [CORTEXOLONE] ? Its LC retention time was 8.32

====

Entries annotated with measured LC retention time
# test details: HILIC, Merck SeQuant ZIC-pHILIC, 150 × 2.1 mm, 5 µm, 40 °C, 0.3 mL/min, estimated dead time 1.1 min; A: acetonitrile; B: water + 2.8 mM ammonium formate, pH 9; gradient (min/%B) 0/5 1/5 10/51 13/51 13.1/5 20/5
# test conditions: stereoisomer not certain
Answer with the value and then the unit.

Worked examples, 5 molecules total:
* O=c1[nH]cnc2c1ncn2C1OC(COP(=O)(O)OP(=O)(O)OP(=O)(O)O)C(O)C1O (stereo unspecified) [INOSINE TRIPHOSPHATE] | 11 min
* Nc1nc2c(ncn2C2CC(O)C(COP(=O)(O)OP(=O)(O)OP(=O)(O)O)O2)c(=O)[nH]1 (stereo unspecified) | 11.1 min
* CC(C)=CCCC(C)=CCOP(=O)(O)OP(=O)(O)O | 8.32 min
* O=C(O)c1cc(=O)c2cccc(O)c2[nH]1 [XANTHURENATE] | 6.93 min
* O=C([O-])CCCCC(=O)[O-] [ADIPATE] | 8.71 min

Form: molecule = CC=CC=CC(=O)[O-] [SORBATE] ; LC retention time = 1.73 min

Oc1ccccc1O yielded LC retention time of 8.04 min

Form field LC retention time, entry O=CC(O)COP(=O)(O)O (stereo unspecified) [GLYCERALDEHYDE 3-PHOSPHATE] : 6.24 min

The measured LC retention time associated with NC(CCSCC(N)C(=O)O)C(=O)O (stereo unspecified) reads 10.3 min

Given item NC1C(O)OC(COP(=O)(O)O)C(O)C1O (stereo unspecified) [GLUCOSAMINE 6-PHOSPHATE] , the value recorded as its LC retention time is 10.2 min

Per the records, this molecule ( CC(=O)NCCc1c[nH]c2ccc(O)cc12 ) has LC retention time equal to 2.26 min

Kindly note the recorded LC retention time for O=C(O)CCCCC1SCC2NC(=O)NC21 (stereo unspecified) , which is 5.57 min

Measured LC retention time, Nc1cc(C(=O)O)ccc1[O-] [3-AMINO-4-HYDROXYBENZOATE] : 7.39 min

====

# test details: HILIC, Waters ACQUITY UPLC BEH Amide, 150 × 2.1 mm, 1.7 µm, 40 °C, 0.5 mL/min, estimated dead time 0.66 min; A: 5% water + 95% acetonitrile; B: 70% water + 30% acetonitrile + 10 mM ammonium formate, pH 6.5; gradient (min/%B) 0/0 2/0 20/70 23/70 24/0 31/0
# test conditions: stereoisomer not certain
Measured LC retention time of individual entries
Report the figure in min without appending any unit label.

• O=c1cccc[nH]1 [2-HYDROXYPYRIDINE] = 1.56

GET /value?item= CCC(C)C(=O)C(=O)[O-] (stereo unspecified) [3-METHYL-2-OXOVALERATE] &field=LC retention time returns 1.83

LC retention time recorded for this compound, CC(=O)NC(CS)C(=O)O (stereo unspecified) [N-ACETYLCYSTEINE] , is 1.88

LC retention time reported for this compound Cn1c(=O)[nH]c2ncn(C)c2c1=O [PARAXANTHINE] : 1.36

// Cc1c[nH]c(=O)[nH]c1=O [THYMINE] : LC retention time value = 1.6

Lookup result for Nc1nc2nc[nH]c2c(=O)[nH]1 [GUANINE] ; measured LC retention time: 6.4

Data point: NCCc1c[nH]c2ccccc12 [TRYPTAMINE] ; LC retention time = 7.11
